Assay: Metabolite profiling of plasma and urine from human subjects after administration of Compound I (HPLC-MS)
Format: in vivo
Details: human subjects dosed with Compound I; LC-MS detection
reported-property: Matrix in which the metabolite was observed/found

>>> measured_value("N#CCC(C1CCCC1)n1cc(-c2ncnc3c2C(O)C(O)N3)cn1 (stereo not shown) [Compound 40]")
"plasma and urine"
>>> measured_value("N#CCC(C1CCCC1)n1cc(-c2[nH]c(=O)nc3c2CC(=O)N3)cn1 (stereo not shown) [Compound 31]")
"urine"
>>> measured_value("N#CCC(C1CCCC1)n1cc(-c2nc(O)nc3c2C(=O)CN3)cn1 (stereo not shown) [Compound 32]")
"plasma and urine"
>>> measured_value("N#CCC(C1CCCC1)n1cc(-c2ncnc3c2ccn3C2OC(C(=O)O)C(O)C(O)C2O)cn1 (stereo not shown) [Compound 41]")
"urine"
